System: EfPiwi piRISC loaded with piRNA #1 (26 nt)
assayText: pre-steady-state target cleavage rate (min^-1); auxiliary factor: 500 nM Ephydatia muelleri Gtsf1; guide: piRNA #1 5'p-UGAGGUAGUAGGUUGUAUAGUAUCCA; higher = faster piRNA-guided slicing of the target
Listing of entries alongside the reported pre-steady-state target cleavage rate.

- monomerSequence: "GGAGAUGAUACUAUACAACCUACUACCUCA"
  pre-steady-state target cleavage rate: 0.193
- monomerSequence: "GGAGAGGAUACUAUACAACCUACGACCUCA"
  pre-steady-state target cleavage rate: 0.00309
- monomerSequence: "GGAGUGGAUACUUUACAAGCUACUACCUCA"
  pre-steady-state target cleavage rate: 0.00397

###

System: MILI (PIWIL2) piRISC loaded with L1MC piRNA (26 nt);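 also: 1 nM active piRISC with 0.1 nM target library at 33 °C single turnover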
assayText: pre-steady-state target cleavage rate (min^-1); guide: L1MC piRNA 5'p-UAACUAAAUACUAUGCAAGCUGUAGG; MIWI and MILI are mouse PIWI proteins and EfPiwi is from a freshwater sponge; tags in brackets are library labels; higher = faster piRNA-guided slicing of the target
conditionsUsed: auxiliary factor: 500 nM mouse GTSF1

- monomerSequence: "UCCUCCUACAGCAUGCAUAGUAUUUAGAAA"
  comparisonSign: "="
  pre-steady-state target cleavage rate: 0.211
- monomerSequence: "UCCUCCUACAGCAUGCAUAGUAUUUACUUA"
  comparisonSign: "="
  pre-steady-state target cleavage rate: 0.16
- monomerSequence: "UCCUCCUACAGCUUGGAUAGUAUUUUGUUA"
  comparisonSign: "="
  pre-steady-state target cleavage rate: 0.164
- monomerSequence: "UCCUCCUACAGCUUGCAUAGUAUUUAGAAA"
  comparisonSign: "="
  pre-steady-state target cleavage rate: 0.18
- monomerSequence: "UCCUGGAUGACCUUGCAUAGUUUUUAGUUA"
  comparisonSign: "="
  pre-steady-state target cleavage rate: 0.0191
- monomerSequence: "UCCUGGAUGUCCUUGCAAAGUAUUUUGUUA"
  comparisonSign: "="
  pre-steady-state target cleavage rate: 0.0119
- monomerSequence: "UCCUGGAUGUCGAAGCAUAGUAUUUAGUUUA"
  comparisonSign: "="
  pre-steady-state target cleavage rate: 0.0244
- monomerSequence: "UCCUGGAACAGGAUGCAUAGUAUUUAGAAA"
  comparisonSign: "="
  pre-steady-state target cleavage rate: 0.0732
- monomerSequence: "UCCUGCUACUGCUUGCAUAGUAUUAAGUUA"
  comparisonSign: "="
  pre-steady-state target cleavage rate: 0.151
- monomerSequence: "UCCUGGUACAGUUGCAUAGUAUUUAGUUA"
  comparisonSign: "="
  pre-steady-state target cleavage rate: 0.227
- monomerSequence: "UCCUCGUACAGCUUCCAUAGUAUUUAGUUA"
  comparisonSign: "="
  pre-steady-state target cleavage rate: 0.0687
- monomerSequence: "UCCUGGAACUCCUUGCAUAGUAUUUAGAAA"
  comparisonSign: "="
  pre-steady-state target cleavage rate: 0.162
- monomerSequence: "UCCUGGAUCAGCUUGCAUAGUAUUCAGUUA"
  comparisonSign: "="
  pre-steady-state target cleavage rate: 0.179
- monomerSequence: "UCCUCCUACACUUGCAUAGUAUUUAGUUA"
  comparisonSign: "="
  pre-steady-state target cleavage rate: 0.248
- monomerSequence: "UCCUGGAUGUCCUUGCAUAGUAUUUAAUUA"
  comparisonSign: "="
  pre-steady-state target cleavage rate: 0.0833
- monomerSequence: "UCCUGGAACAGCUUGCUUAGUAUUUAGAUA"
  comparisonSign: "="
  pre-steady-state target cleavage rate: 0.176
- monomerSequence: "UCCUGGUACAGCUUGCAAUGUAUUUAGUAA"
  comparisonSign: "="
  pre-steady-state target cleavage rate: 0.0576
- monomerSequence: "UCCUGGAACAGCUUGCAUAGUAUAUACAAA"
  comparisonSign: "="
  pre-steady-state target cleavage rate: 0.0873
- monomerSequence: "UCCUGGAUGUGCUUGCAUAGUAUUUAGCUUA"
  comparisonSign: "="
  pre-steady-state target cleavage rate: 0.113
- monomerSequence: "UCCUGGAUGAGCUAGCAUAGUAUUUACAAA"
  comparisonSign: "="
  pre-steady-state target cleavage rate: 0.0471
- monomerSequence: "UCCUGGAAGAGCUUGCAUAGUUUUUAGUUA"
  comparisonSign: "="
  pre-steady-state target cleavage rate: 0.0486
- monomerSequence: "UCCUGGUAGAGCUUGCAUAGUAUUUAGAAA"
  comparisonSign: "="
  pre-steady-state target cleavage rate: 0.128
- monomerSequence: "UCCUGCUACAGCUUGCAUACUAUUUACAAA"
  comparisonSign: "="
  pre-steady-state target cleavage rate: 0.0741
- monomerSequence: "UCCUCCUACAGCUUUGCAUAGUAUUUAGUUA"
  comparisonSign: "="
  pre-steady-state target cleavage rate: 0.291
- monomerSequence: "UCCUGGAACAGCUUGCCUAGUAUUUAGUUA"
  comparisonSign: "="
  pre-steady-state target cleavage rate: 0.248
- monomerSequence: "UCCUGGAUCUGCUUGCAUACUAUUUAGUUA"
  comparisonSign: "="
  pre-steady-state target cleavage rate: 0.055
- monomerSequence: "UCCUGGAUGAGACUUGCAUAGUAUUUAGUUA"
  comparisonSign: "="
  pre-steady-state target cleavage rate: 0.186
- monomerSequence: "UCCUGGAUCAGGUUGCAAAGUAUUUAGUUA"
  comparisonSign: "="
  pre-steady-state target cleavage rate: 0.121
- monomerSequence: "UCCUCCUACAGGAAGCAUAGUAUUUAGUUA"
  comparisonSign: "="
  pre-steady-state target cleavage rate: 0.292
- monomerSequence: "UCCUGGUUCAGCUUGCAUAGUAUUUACAAA"
  comparisonSign: "="
  pre-steady-state target cleavage rate: 0.0698
- monomerSequence: "UCCUGGAUGUCGAACCCAUAGUAUUUAGUUA"
  comparisonSign: "="
  pre-steady-state target cleavage rate: 0.0032
- monomerSequence: "UCCUCCUACAGGUUGCAUAGUAUAUAGUUA"
  comparisonSign: "="
  pre-steady-state target cleavage rate: 0.219
- monomerSequence: "UCCUCGUACACCUUGCAUAGUAUUUAGUUA"
  comparisonSign: "="
  pre-steady-state target cleavage rate: 0.239
- monomerSequence: "UCCUGGAUGUCCUUCGAUAGUAUUUAGUUA"
  comparisonSign: "="
  pre-steady-state target cleavage rate: 0.00794
- monomerSequence: "UCCUGGUACAGGAUGCAUAGUAUUUAGUUA"
  comparisonSign: "="
  pre-steady-state target cleavage rate: 0.215
- monomerSequence: "UCCUGGAAGAGCUUGCAUAGUAUUAAGUUA"
  comparisonSign: "="
  pre-steady-state target cleavage rate: 0.21
- monomerSequence: "UCCUCCUUCAGCUUGCAUAGUAUUUAGUAA"
  comparisonSign: "="
  pre-steady-state target cleavage rate: 0.228
- monomerSequence: "UCCUGGAUGUGCUUGCAUAGUAAAUAGUUA"
  comparisonSign: "="
  pre-steady-state target cleavage rate: 0.0601
- monomerSequence: "UCCUGGAUGUCGAACCAUUGUAUAUAGUUA"
  comparisonSign: "<"
  pre-steady-state target cleavage rate: 0.0001
- monomerSequence: "UCCUGGAUCAGCUUGCAUUGUAUUUAGAUA"
  comparisonSign: "="
  pre-steady-state target cleavage rate: 0.103
- monomerSequence: "UCCUGGAACAGCAACCAUAGUAUUUAGAAA"
  comparisonSign: "="
  pre-steady-state target cleavage rate: 0.018
- monomerSequence: "UCCUGGUACAGCUUGCUAAGUAUUUAGUAA"
  comparisonSign: "="
  pre-steady-state target cleavage rate: 0.036
- monomerSequence: "UCCUGGAUGUCGAUGCAUACUAUUUAGUUA"
  comparisonSign: "="
  pre-steady-state target cleavage rate: 0.0178
- monomerSequence: "UCCUGGUACAGCUUGCAGAGUAUUUAGUUA"
  comparisonSign: "="
  pre-steady-state target cleavage rate: 0.121
- monomerSequence: "UCCUGGAUGUCGAACGUAUGUAUUUAGUAUA"
  comparisonSign: "<"
  pre-steady-state target cleavage rate: 0.0001
- monomerSequence: "UCCUGGAUCAGCUUGCAUAGUAUAAUCAAA"
  comparisonSign: "="
  pre-steady-state target cleavage rate: 0.0782
- monomerSequence: "UCCUCGUACAGCUUGCAUAGUUUUUAGUUA"
  comparisonSign: "="
  pre-steady-state target cleavage rate: 0.0651
- monomerSequence: "UCCUGGAUGUCGUUGCAUAGUAUUUUAGUUA"
  comparisonSign: "="
  pre-steady-state target cleavage rate: 0.125
